Test system: Bifunctional dihydrofolate reductase-thymidylate synthase (Plasmodium falciparum K1), P13922 [UNDEFINED MUTATION]
Sequence (P13922 whole entry, looked up, stated change not applied): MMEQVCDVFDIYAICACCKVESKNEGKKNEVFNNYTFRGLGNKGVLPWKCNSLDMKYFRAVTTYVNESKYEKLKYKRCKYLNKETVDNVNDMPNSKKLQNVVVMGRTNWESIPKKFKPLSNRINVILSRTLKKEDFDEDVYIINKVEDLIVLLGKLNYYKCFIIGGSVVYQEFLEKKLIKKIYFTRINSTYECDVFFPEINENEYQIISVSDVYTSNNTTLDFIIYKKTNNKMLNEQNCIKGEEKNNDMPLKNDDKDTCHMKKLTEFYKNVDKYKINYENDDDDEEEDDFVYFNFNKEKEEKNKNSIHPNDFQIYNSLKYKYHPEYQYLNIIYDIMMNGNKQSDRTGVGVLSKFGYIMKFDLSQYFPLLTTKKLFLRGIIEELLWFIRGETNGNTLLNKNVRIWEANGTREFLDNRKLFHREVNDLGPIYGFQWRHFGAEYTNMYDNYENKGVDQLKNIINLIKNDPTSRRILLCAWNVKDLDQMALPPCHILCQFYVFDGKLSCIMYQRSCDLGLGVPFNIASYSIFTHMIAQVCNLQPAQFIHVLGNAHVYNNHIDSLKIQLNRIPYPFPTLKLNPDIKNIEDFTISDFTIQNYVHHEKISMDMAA
Test: Ratio of Inhibition of the C59R+S108N mutant of dihydrofolate reductase (DHFR) to inhibition of wild type dihydrofolate reductase.
Use 1 when the recorded Ratio is no lower than 40; use -1 when it is lower.

Evaluate "COC(=O)CCCc1nc(N)nc(N)c1-c1cccc(Cl)c1" : Ratio at minimum 40? -1

Evaluate "Nc1ncc(-c2ccc(Cl)cc2)c(N)n1" : Ratio at minimum 40? 1

Evaluate "Nc1ncc(-c2cccc(Cl)c2)c(N)n1" : Ratio at minimum 40? -1

Evaluate "Nc1nc(N)c(-c2ccccc2)c(CCCc2ccccc2)n1" : Ratio at minimum 40? -1

Evaluate "CCc1nc(N)nc(N)c1-c1ccc(Cl)cc1Cl" : Ratio at minimum 40? 1

Evaluate "CCCCCCc1nc(N)nc(N)c1-c1ccccc1" : Ratio at minimum 40? -1

Evaluate "COc1cc(COc2cc(Cc3cnc(N)nc3N)ccc2OCc2ccccc2)cc(OC)c1OC" : Ratio at minimum 40? 1

Evaluate "Nc1ncc(-c2ccccc2)c(N)n1" : Ratio at minimum 40? -1

Evaluate "CCc1nc(N)nc(N)c1-c1ccc(C(C)(C)C)cc1" : Ratio at minimum 40? 1

Evaluate "COC(=O)CCCc1nc(N)nc(N)c1-c1ccccc1" : Ratio at minimum 40? -1

Evaluate "Nc1ncc(Cc2ccc(OCCCOc3cc(Cl)c(Cl)cc3Cl)cc2)c(N)n1" : Ratio at minimum 40? 1

Evaluate "CCc1nc(N)nc(N)c1-c1ccc(OC)cc1" : Ratio at minimum 40? 1

---

Target: Bifunctional dihydrofolate reductase-thymidylate synthase (Plasmodium falciparum K1) (UniProt P13922)
Assay: Inhibition of the C59R+S108N mutant of dihydrofolate reductase (DHFR) relative to Pyr.
Consider the following compounds; for each one, report its Relative activity.
Keep it simple and answer with nothing but the number.

Entry under test: "CCc1nc(N)nc(N)c1-c1ccc(OC)cc1" . Its Relative activity was 1.6

Entry under test: "CCc1nc(N)nc(N)c1-c1ccc(-c2ccccc2)cc1" . Its Relative activity was 13.5

Entry under test: "CCc1nc(N)nc(N)c1-c1ccc(C(C)(C)C)cc1" . Its Relative activity was 2.4

Entry under test: "CCc1nc(N)nc(N)c1-c1ccc(Br)cc1" . Its Relative activity was 0.8

Entry under test: "CCc1nc(N)nc(N)c1-c1ccc(C)cc1" . Its Relative activity was 0.3

---

Consider the following compounds; for each one, report its Ratio.
Test system: Bifunctional dihydrofolate reductase-thymidylate synthase (Plasmodium falciparum K1), P13922 [UNDEFINED MUTATION]
Test: Ratio of Inhibition of the S108N mutant of dihydrofolate reductase (DHFR) to inhibition of wild type dihydrofolate reductase.

Entry under test: "CCc1nc(N)nc(N)c1-c1ccc(Cl)cc1Cl" . Its Ratio was 93.1

Entry under test: "Nc1ncc(-c2ccc(Cl)cc2)c(N)n1" . Its Ratio was 154

Entry under test: "Nc1ncc(-c2cccc(Cl)c2)c(N)n1" . Its Ratio was 4.2

Entry under test: "Cc1nc(N)nc(N)c1-c1ccccc1" . Its Ratio was 2.3

Entry under test: "CCc1nc(N)nc(N)c1-c1ccc(Cl)c(Cl)c1" . Its Ratio was 9

Entry under test: "COC(=O)CCCc1nc(N)nc(N)c1-c1ccccc1" . Its Ratio was 0.06

Entry under test: "Nc1nc(N)c(-c2ccccc2)c(CCCc2ccccc2)n1" . Its Ratio was 1.8

Entry under test: "CCc1nc(N)nc(N)c1-c1ccc(OC)cc1" . Its Ratio was 43.3

Entry under test: "Nc1nc(N)c(-c2ccc(Cl)cc2)c(CCCc2ccccc2)n1" . Its Ratio was 19.9

Entry under test: "Nc1ncc(-c2ccccc2)c(N)n1" . Its Ratio was 1.9

Entry under test: "Nc1nc(N)c(-c2cccc(Cl)c2)c(CCOCCCOc2ccccc2)n1" . Its Ratio was 4.5

Entry under test: "CCc1nc(N)nc(N)c1-c1ccc(Br)cc1" . Its Ratio was 105

Entry under test: "CCOc1c(Br)cc(-c2c(N)nc(N)nc2CC)cc1Br" . Its Ratio was 59.3

Entry under test: "Cc1nc(N)nc(N)c1-c1ccc(Cl)cc1" . Its Ratio was 51.8

Entry under test: "COc1cc(COc2cc(Cc3cnc(N)nc3N)ccc2OCc2ccccc2)cc(OC)c1OC" . Its Ratio was 2.5

Entry under test: "Nc1ncc(Cc2ccc(OCCCOc3cc(Cl)c(Cl)cc3Cl)cc2)c(N)n1" . Its Ratio was 26.1

Entry under test: "COc1ccc(CCCc2nc(N)nc(N)c2-c2cccc(Cl)c2)cc1" . Its Ratio was 1.8

Entry under test: "Nc1nc(N)c(-c2cccc(Cl)c2)c(CCCc2ccccc2)n1" . Its Ratio was 2.5

Entry under test: "CCc1nc(N)nc(N)c1-c1ccccc1" . Its Ratio was 2

Entry under test: "CCc1nc(N)nc(N)c1-c1ccc(C)cc1" . Its Ratio was 26.5

Entry under test: "COC(=O)CCCc1nc(N)nc(N)c1-c1cccc(Cl)c1" . Its Ratio was 3.4

Entry under test: "CCCCCCc1nc(N)nc(N)c1-c1ccccc1" . Its Ratio was 4

Entry under test: "COc1cc(Cc2cnc(N)nc2N)ccc1OCCCc1ccccc1" . Its Ratio was 14.8

Entry under test: "CCc1nc(N)nc(N)c1-c1ccc(-c2ccccc2)cc1" . Its Ratio was 2.2

Entry under test: "COC(=O)CCCc1nc(N)nc(N)c1-c1ccc(Cl)cc1" . Its Ratio was 56.3

Entry under test: "CCc1nc(N)nc(N)c1-c1ccc(C(C)(C)C)cc1" . Its Ratio was 110

Entry under test: "Cc1nc(N)nc(N)c1-c1cccc(Cl)c1" . Its Ratio was 1.7

Entry under test: "CCc1nc(N)nc(N)c1-c1ccc2c(c1)OCO2" . Its Ratio was 15.6
